Cited source: patent US20220017630A1

tgt: T1, human TNFR2 (Novoprotein, Catalog No. C830) (human, UniProt P20333 23-257, limits assumed)
T1 construct: construct not described; also called TNFR2 protein
T1 sequence (looked up): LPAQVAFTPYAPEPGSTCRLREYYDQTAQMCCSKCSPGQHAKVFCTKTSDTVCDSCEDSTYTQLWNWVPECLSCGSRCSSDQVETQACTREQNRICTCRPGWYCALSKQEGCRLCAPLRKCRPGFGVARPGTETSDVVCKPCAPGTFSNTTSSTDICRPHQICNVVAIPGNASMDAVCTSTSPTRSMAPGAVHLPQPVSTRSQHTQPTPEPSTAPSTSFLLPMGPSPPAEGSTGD
method_summary: blocking ELISA, TNFα-biotin on coated human TNFR2, antibody 20 nM
recorded_endpoint: ELISA OD of antibodies to be tested (20 nM)

• TNFR2 antibody #224 (antibody, V domains shown) VH: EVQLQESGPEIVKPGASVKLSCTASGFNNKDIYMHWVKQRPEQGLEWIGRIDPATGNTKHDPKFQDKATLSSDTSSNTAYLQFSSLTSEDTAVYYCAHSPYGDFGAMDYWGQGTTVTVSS VL: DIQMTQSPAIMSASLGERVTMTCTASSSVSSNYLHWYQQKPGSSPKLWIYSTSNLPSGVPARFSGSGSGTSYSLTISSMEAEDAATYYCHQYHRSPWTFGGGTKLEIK = 0.123 OD

Please look at the following binder next.
The binder identified as TNFR2 antibody #219 (antibody, V domains shown) VH: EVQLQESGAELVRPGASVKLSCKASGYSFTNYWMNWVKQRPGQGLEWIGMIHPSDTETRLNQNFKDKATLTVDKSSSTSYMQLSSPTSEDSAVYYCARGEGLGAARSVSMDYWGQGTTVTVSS VL: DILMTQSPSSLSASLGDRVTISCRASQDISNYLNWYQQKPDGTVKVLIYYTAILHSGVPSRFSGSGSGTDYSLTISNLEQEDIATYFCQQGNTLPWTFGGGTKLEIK registered its ELISA OD of antibodies to be tested (20 nM) at 0.28 OD
